Give measured pIC50 for each item. Keep answers brief.
- Test system: ZR-75-1
- assayExplanation: Cell proliferation MTT assay
- Type: cell-based
- testConditions: ZR-75-1, 7 days, read-out: 7 day IC50
Answers are plain numbers, as −log10 of the molar value.

CC(C)c1cnn2c(NCc3ccccc3)cc(NCCCCCCN)nc12; 4.71

# context switch: different molecule, same pIC50
Kindly note: ZR-75-1, CN(C)C/C=C/C(=O)Nc1ccc(C(=O)Nc2cccc(Nc3ncc(Cl)c(-c4c[nH]c5ccccc45)n3)c2)cc1 , pIC50 value reported: 7.30

----------
- Tested on: ZR-75-1
- assayExplanation: Cell proliferation MTT assay
- Type: cell-based
- testConditions: ZR-75-1, 2 days, read-out: 2 day IC50
measurementLabel: pIC50
One number for each entry, as −log10 of the molar value.

# compound CN(C)C/C=C/C(=O)Nc1ccc(C(=O)Nc2cccc(Nc3ncc(Cl)c(-c4c[nH]c5ccccc45)n3)c2)cc1 [THZ1] ; its pIC50 = 6.54

----------
- System: T47D
- assayExplanation: Cell proliferation MTT assay
- Format: cell-based
- testConditions: 7 days, read-out: 7 day IC50
measurementLabel: IC50 (µM)
Numbers only, in µM.

CC(C)c1cnn2c(NCc3ccccc3)cc(NCCCCCCN)nc12 [BS-181]; 8.5

# context switch: different molecule, same IC50
Kindly note: T47D, CN(C)C/C=C/C(=O)Nc1ccc(C(=O)Nc2cccc(Nc3ncc(Cl)c(-c4c[nH]c5ccccc45)n3)c2)cc1 [THZ1] , IC50 value reported: 0.014

----------
- Tested on: MDA-MB-453
- assayExplanation: Cell proliferation MTT assay
- Type: cell-based
- testConditions: MDA-MB-453, 7 days, read-out: 7 day IC50
measurementLabel: IC50 (nM)
One number for each entry, in nM.

# compound CN(C)C/C=C/C(=O)Nc1ccc(C(=O)Nc2cccc(Nc3ncc(Cl)c(-c4c[nH]c5ccccc45)n3)c2)cc1 ; its IC50 = 12

----------
- Test system: SKBR3
- assayExplanation: Cell proliferation MTT assay
- Assay type: cell-based
- testConditions: SKBR3, 7 days, read-out: 7 day IC50
measurementLabel: pIC50
One number for each entry, as −log10 of the molar value.

CN(C)C/C=C/C(=O)Nc1ccc(C(=O)Nc2cccc(Nc3ncc(Cl)c(-c4c[nH]c5ccccc45)n3)c2)cc1; 8.05

Kindly note: SKBR3, CC(C)c1cnn2c(NCc3ccccc3)cc(NCCCCCCN)nc12 , pIC50 value reported: 5.05
